Molecular target: T1, Soluble heterodimeric CD3 protein (hCD3-epsilon/hCD3-delta) with either a human Fc tag (hFcΔAdp/hFc) or a … (human, UniProt P07766 23-126; P04234 22-105)
T1 construct: also called hCD3ε/δ; not shown: Fc tag: human (hFcΔAdp/hFc)
T1 sequence (P07766 23-126 limits assumed, stated change not applied, chain 1 of 2): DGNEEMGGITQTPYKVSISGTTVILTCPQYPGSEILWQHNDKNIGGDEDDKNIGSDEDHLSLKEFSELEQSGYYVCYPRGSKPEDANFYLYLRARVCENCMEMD
T1 sequence (P04234 22-105 limits assumed, stated change not applied, chain 2 of 2): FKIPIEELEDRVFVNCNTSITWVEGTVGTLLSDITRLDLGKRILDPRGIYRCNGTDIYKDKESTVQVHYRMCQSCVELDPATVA
Assay: SPR Biacore 25C antibody-capture

- binder: "H1H5764P (antibody, human IgG1, V domains shown, H1H: human IgG1 Fc; divalent) VH: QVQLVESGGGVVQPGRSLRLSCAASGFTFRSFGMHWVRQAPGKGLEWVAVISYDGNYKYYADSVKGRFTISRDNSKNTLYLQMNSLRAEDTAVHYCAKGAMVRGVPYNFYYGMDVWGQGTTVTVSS VL: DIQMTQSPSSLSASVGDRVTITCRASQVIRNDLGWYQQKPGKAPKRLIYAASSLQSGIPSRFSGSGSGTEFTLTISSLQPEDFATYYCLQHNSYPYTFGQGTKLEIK"
  unit_symbol: "M⁻¹ s⁻¹"
  kon: 4160
- binder: "H1H5757B (antibody, human IgG1, V domains shown, H1H: human IgG1 Fc; divalent) VH: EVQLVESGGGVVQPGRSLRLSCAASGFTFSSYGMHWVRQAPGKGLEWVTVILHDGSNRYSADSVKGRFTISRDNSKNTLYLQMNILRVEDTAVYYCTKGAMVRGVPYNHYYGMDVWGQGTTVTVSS VL: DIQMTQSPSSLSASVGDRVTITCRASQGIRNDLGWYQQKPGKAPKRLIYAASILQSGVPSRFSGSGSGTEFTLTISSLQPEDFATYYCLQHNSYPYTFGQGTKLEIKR"
  unit_symbol: "M⁻¹ s⁻¹"
  kon: 6630
- binder: "H1H5780P (antibody, human IgG1, V domains shown, H1H: human IgG1 Fc; divalent) VH: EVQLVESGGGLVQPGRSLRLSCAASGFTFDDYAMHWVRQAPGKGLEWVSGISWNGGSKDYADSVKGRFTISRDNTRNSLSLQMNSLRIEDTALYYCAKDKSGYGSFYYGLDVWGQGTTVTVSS VL: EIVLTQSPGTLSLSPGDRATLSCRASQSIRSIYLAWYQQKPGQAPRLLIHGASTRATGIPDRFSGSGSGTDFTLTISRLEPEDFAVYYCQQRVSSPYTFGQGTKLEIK"
  unit_symbol: "M⁻¹ s⁻¹"
  kon: 13100
- binder: "H1H5755B (antibody, human IgG1, V domains shown, H1H: human IgG1 Fc; divalent) VH: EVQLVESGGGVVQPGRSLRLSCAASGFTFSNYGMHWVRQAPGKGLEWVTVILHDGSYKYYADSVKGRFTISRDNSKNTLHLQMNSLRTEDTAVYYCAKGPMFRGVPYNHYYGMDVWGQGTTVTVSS VL: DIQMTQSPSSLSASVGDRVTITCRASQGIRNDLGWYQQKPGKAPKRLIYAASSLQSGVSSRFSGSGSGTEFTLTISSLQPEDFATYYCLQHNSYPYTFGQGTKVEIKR"
  unit_symbol: "M⁻¹ s⁻¹"
  kon: 8210
- binder: "H1H5791B (antibody, human IgG1, V domains shown, H1H: human IgG1 Fc; divalent) VH: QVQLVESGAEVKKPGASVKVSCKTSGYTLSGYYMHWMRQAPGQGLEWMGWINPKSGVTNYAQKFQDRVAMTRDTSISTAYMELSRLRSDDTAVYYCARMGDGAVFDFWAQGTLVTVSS VL: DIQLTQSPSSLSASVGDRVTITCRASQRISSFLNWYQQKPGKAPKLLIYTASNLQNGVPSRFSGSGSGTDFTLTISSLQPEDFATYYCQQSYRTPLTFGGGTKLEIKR"
  unit_symbol: "M⁻¹ s⁻¹"
  kon: 10900
- binder: "H1H5799P (antibody, human IgG1, V domains shown, H1H: human IgG1 Fc; divalent) VH: QVQLVQSGAEVKKPGASVKVSCKASGYTFIGYYMHWVRQAPGQGLEWMGWINPKSGGTNYAQKFQGRVTMTGDTSISTAYMELSRLRSDDTAVFYCARMGDGAMFDYWGQGTLVTVSS VL: DIQMTQSPSSLSASVGDRVTITCRASQRISSYLNWYQQKAGKAPKVLIYTASSLQSGVPSRFSGSGSGTDFTLTISSLQPEDFATYYCQQSYSTPLTFGGGTKVEIK"
  unit_symbol: "M⁻¹ s⁻¹"
  kon: 13600
- binder: "H1H5758B (antibody, human IgG1, V domains shown, H1H: human IgG1 Fc; divalent) VH: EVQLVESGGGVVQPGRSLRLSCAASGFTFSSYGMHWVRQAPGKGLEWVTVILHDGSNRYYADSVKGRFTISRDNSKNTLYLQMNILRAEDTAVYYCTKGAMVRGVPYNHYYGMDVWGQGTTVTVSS VL: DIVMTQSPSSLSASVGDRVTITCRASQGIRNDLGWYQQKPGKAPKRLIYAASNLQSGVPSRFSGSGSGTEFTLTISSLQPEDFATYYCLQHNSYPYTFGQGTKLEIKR"
  unit_symbol: "M⁻¹ s⁻¹"
  kon: 5020
- binder: "H1H5756B (antibody, human IgG1, V domains shown, H1H: human IgG1 Fc; divalent) VH: EVQLVESGGGVVQPGRSLRLSCTASGFPFSRYGMHWVRQAPGKGLEWVTFIWYDGSNKYYADSAKGRFTITRDNSKNTVYLQMDSLRADDTAVYYCVRDQAALYYFDSWGQGTLVTVSS VL: DIQMTQSPSSVSASVGDRVTITCRASQGISRWLAWYQQKPGKAPKLLISAASSLQSGVPSRFSGSGSGTDFTLTISGLQPEDFATYYCQKANSFPFTFGPGTKLEIKR"
  unit_symbol: "M⁻¹ s⁻¹"
  kon: 8150
- binder: "H1H5788P (antibody, V domains shown, H1H: human IgG1 Fc; divalent) VH: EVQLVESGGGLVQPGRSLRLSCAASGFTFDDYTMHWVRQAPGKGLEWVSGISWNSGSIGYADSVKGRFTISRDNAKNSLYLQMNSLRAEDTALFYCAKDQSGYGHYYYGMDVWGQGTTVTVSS VL: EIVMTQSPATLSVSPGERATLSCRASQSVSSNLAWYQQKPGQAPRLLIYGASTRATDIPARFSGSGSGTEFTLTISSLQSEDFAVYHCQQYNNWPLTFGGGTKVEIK"
  unit_symbol: "M⁻¹ s⁻¹"
  kon: 2880
- binder: "H1H5781P (antibody, human IgG1, V domains shown, H1H: human IgG1 Fc; divalent) VH: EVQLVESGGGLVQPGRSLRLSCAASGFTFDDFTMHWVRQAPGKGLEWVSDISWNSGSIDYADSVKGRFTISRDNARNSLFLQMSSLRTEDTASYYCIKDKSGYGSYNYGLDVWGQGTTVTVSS VL: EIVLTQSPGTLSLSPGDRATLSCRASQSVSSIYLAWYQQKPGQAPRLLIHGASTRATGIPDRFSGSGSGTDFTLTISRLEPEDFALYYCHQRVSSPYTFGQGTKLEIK"
  unit_symbol: "M⁻¹ s⁻¹"
  kon: 8610
